system: RPEMYC^H2B-GFP cells; assay: Phenotypic screening assay (mitotic arrest, polyploidy); format: cell-based; conditions: 1 nM to 30 μM, read-out: Proliferative arrest (>50%)
VALUE_TYPE: IC50

Query: // IC50 lookup, key: COc1cc(Oc2ccnc3ccccc23)cc(C(F)(F)F)c1 [Compound 11]
Reply: 1 to 10 µM

Query: // query IC50 value for entry COc1cc(OC)cc(Oc2ncnc3ccn(C)c23)c1 [Compound 54]
Reply: 10 to 30 µM

Query: Which value of IC50 has been reported for COc1cc(Oc2ncnc3cc(OC)c(OC)cc23)cc(-n2cnc(C)c2)c1 [Compound 75] in the records?
Reply: 0.001 to 1 µM

Query: Would you mind telling me what IC50 value was observed for COc1cc(Oc2ccnc3ccc(F)cc23)cc(-n2cccn2)c1 [Compound 19] ?
Reply: 0.001 to 1 µM

Query: I would be grateful if you could share the reported IC50 for CNC(=O)c1cc(OC)cc(Oc2ccnc3cc(OC)c(C(N)=O)cc23)c1 [Compound 71] .
Reply: 1 to 10 µM

Query: Requested read-out: IC50. Entry: COc1cc(NC(C)=O)cc(Oc2ccnc3cc(OC)c(OC)cc23)c1 [Compound 27]
Reply: 0.001 to 1 µM

Query: Find the recorded IC50 belonging to COc1cc(NC(C)=O)cc(Oc2ccnc3ccc(OC)cc23)c1 [Compound 18] and report it.
Reply: 0.001 to 1 µM

Query: What value of IC50 has been recorded for this entry: COc1cc(Oc2ccnc3ccccc23)cc(-c2nc(C)no2)c1 [Compound 13]
Reply: 0.001 to 1 µM

Query: Give its IC50 value. Item: COc1cc(Oc2ccnc3ccccc23)cc(-n2cccn2)c1 [Compound 12]
Reply: 0.001 to 1 µM
